System: ROCK1;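 further: KINOMEscan kinase panel screen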
Conditions: concentration: 1 μM,replicates: in singlicate; n = 1
Hi! Just check whether %Inh is below 7%. Below gives yes, equal or above gives no.

Record COc1ccc(C[C@@H](CN)NC(=O)c2cc(Br)c(-c3ccnc4[nH]ccc34)s2)cc1.Cl.Cl : is its %Inh strictly below 7%? no

Next molecule: O=C(NCCNc1ccnc(NCc2ccc(F)cc2)n1)c1cc2ccccc2s1 yes

Next molecule: Cl.Cl.NC[C@H](CC1CCCCC1)NC(=O)c1cc(Br)c(-c2ccnc3[nH]ccc23)s1 no

Next molecule: Cl.Cl.Nc1nc(-c2ccc3c(N)n[nH]c3c2)cc(N2CCCC(NC(=O)c3ccccc3)C2)n1 (stereo not shown) yes

Next molecule: NC(=O)c1cc(-c2ccccc2)cc2c(C3CCNCC3)c[nH]c12 no

Next molecule: O=C(NCCCN1CCOC1=O)c1cnc(NCc2cc(Cl)ccc2Cl)nc1NC1CCCC1 yes

Next molecule: CN(C)CCOc1ccc(-c2cc(-c3c[nH]nc3-c3ccccn3)ccn2)cc1 no

Next molecule: CN(C)CC(O)COc1ccc(Nc2nccc(-c3cnn4nc(N5CCOCC5)ccc34)n2)cc1 (stereo not shown) no

Next molecule: Cc1ccc2c(-c3ccncc3)c(-c3ccc(F)cc3)nn2c1.Cl no

Next molecule: CNC(=O)c1ccccc1Sc1ccc2c(/C=C/c3ccccn3)n[nH]c2c1 yes

Next molecule: Cl.Oc1cc(-c2nc(-c3ccccc3)[nH]c2-c2ccncc2)ccc1Cl yes

Next molecule: CCn1c(-c2nonc2N)nc2c(C#CC(C)(C)O)nc(OCCN)cc21.Cl.Cl no
